meta.source: the supplement of paper PMC6757056

Listing of recorded normalized RNA/DNA level without ligand (log10) by entry.
B1: library; a variant is named by its letters at N, in order (parent)
chain: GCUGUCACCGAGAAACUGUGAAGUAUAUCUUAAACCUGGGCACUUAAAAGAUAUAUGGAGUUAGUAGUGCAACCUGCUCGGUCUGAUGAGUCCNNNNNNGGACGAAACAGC

Variants of: B1
Assay: normalized RNA/DNA level without ligand (relative to sTRSVctl = 100) (log10 (% of sTRSVctl)); HEK293T; ligand: cyclic di-GMP (c-di-GMP-II aptamer); higher = less ribozyme self-cleavage, higher mRNA level
Settings: reporter: mCherry (pCS4076), ligand present: no
reported-property: normalized RNA/DNA level without ligand (log10)

>>> df
                              sequence_input  data_value
 0  GCUGUCACCGAGAAACUGUGAAGUAUAUCUUAAACCUGGGCACUUAAAAGAUAUAUGGAGUUAGUAGUGCAACCUGCUCGGUCUGAUGAGUCCAACUCUGGACGAAACAGC [AACUCU]        1.73
 1  GCUGUCACCGAGAAACUGUGAAGUAUAUCUUAAACCUGGGCACUUAAAAGAUAUAUGGAGUUAGUAGUGCAACCUGCUCGGUCUGAUGAGUCCCUUGUCGGACGAAACAGC [CUUGUC]        1.78
 2  GCUGUCACCGAGAAACUGUGAAGUAUAUCUUAAACCUGGGCACUUAAAAGAUAUAUGGAGUUAGUAGUGCAACCUGCUCGGUCUGAUGAGUCCGGAACCGGACGAAACAGC [GGAACC]        1.74
 3  GCUGUCACCGAGAAACUGUGAAGUAUAUCUUAAACCUGGGCACUUAAAAGAUAUAUGGAGUUAGUAGUGCAACCUGCUCGGUCUGAUGAGUCCCGACGAGGACGAAACAGC [CGACGA]         1.5
 4  GCUGUCACCGAGAAACUGUGAAGUAUAUCUUAAACCUGGGCACUUAAAAGAUAUAUGGAGUUAGUAGUGCAACCUGCUCGGUCUGAUGAGUCCUUUCGUGGACGAAACAGC [UUUCGU]        1.72
 5  GCUGUCACCGAGAAACUGUGAAGUAUAUCUUAAACCUGGGCACUUAAAAGAUAUAUGGAGUUAGUAGUGCAACCUGCUCGGUCUGAUGAGUCCAAAAUAGGACGAAACAGC [AAAAUA]        1.48
 6  GCUGUCACCGAGAAACUGUGAAGUAUAUCUUAAACCUGGGCACUUAAAAGAUAUAUGGAGUUAGUAGUGCAACCUGCUCGGUCUGAUGAGUCCCUGGGGGGACGAAACAGC [CUGGGG]        1.65
 7  GCUGUCACCGAGAAACUGUGAAGUAUAUCUUAAACCUGGGCACUUAAAAGAUAUAUGGAGUUAGUAGUGCAACCUGCUCGGUCUGAUGAGUCCGUAGCCGGACGAAACAGC [GUAGCC]        1.69
 8  GCUGUCACCGAGAAACUGUGAAGUAUAUCUUAAACCUGGGCACUUAAAAGAUAUAUGGAGUUAGUAGUGCAACCUGCUCGGUCUGAUGAGUCCCGAGCCGGACGAAACAGC [CGAGCC]        1.82
 9  GCUGUCACCGAGAAACUGUGAAGUAUAUCUUAAACCUGGGCACUUAAAAGAUAUAUGGAGUUAGUAGUGCAACCUGCUCGGUCUGAUGAGUCCACGCACGGACGAAACAGC [ACGCAC]        1.61
10  GCUGUCACCGAGAAACUGUGAAGUAUAUCUUAAACCUGGGCACUUAAAAGAUAUAUGGAGUUAGUAGUGCAACCUGCUCGGUCUGAUGAGUCCCCAAACGGACGAAACAGC [CCAAAC]         1.6
11  GCUGUCACCGAGAAACUGUGAAGUAUAUCUUAAACCUGGGCACUUAAAAGAUAUAUGGAGUUAGUAGUGCAACCUGCUCGGUCUGAUGAGUCCUCGAGCGGACGAAACAGC [UCGAGC]        1.74
12  GCUGUCACCGAGAAACUGUGAAGUAUAUCUUAAACCUGGGCACUUAAAAGAUAUAUGGAGUUAGUAGUGCAACCUGCUCGGUCUGAUGAGUCCGCGUGAGGACGAAACAGC [GCGUGA]        1.47
13  GCUGUCACCGAGAAACUGUGAAGUAUAUCUUAAACCUGGGCACUUAAAAGAUAUAUGGAGUUAGUAGUGCAACCUGCUCGGUCUGAUGAGUCCCUAUUGGGACGAAACAGC [CUAUUG]        1.63
14  GCUGUCACCGAGAAACUGUGAAGUAUAUCUUAAACCUGGGCACUUAAAAGAUAUAUGGAGUUAGUAGUGCAACCUGCUCGGUCUGAUGAGUCCUGAGCUGGACGAAACAGC [UGAGCU]        1.76
15  GCUGUCACCGAGAAACUGUGAAGUAUAUCUUAAACCUGGGCACUUAAAAGAUAUAUGGAGUUAGUAGUGCAACCUGCUCGGUCUGAUGAGUCCCAUCAUGGACGAAACAGC [CAUCAU]        1.56
16  GCUGUCACCGAGAAACUGUGAAGUAUAUCUUAAACCUGGGCACUUAAAAGAUAUAUGGAGUUAGUAGUGCAACCUGCUCGGUCUGAUGAGUCCGAUCCGGGACGAAACAGC [GAUCCG]        1.88
17  GCUGUCACCGAGAAACUGUGAAGUAUAUCUUAAACCUGGGCACUUAAAAGAUAUAUGGAGUUAGUAGUGCAACCUGCUCGGUCUGAUGAGUCCCAAAAAGGACGAAACAGC [CAAAAA]        1.21
18  GCUGUCACCGAGAAACUGUGAAGUAUAUCUUAAACCUGGGCACUUAAAAGAUAUAUGGAGUUAGUAGUGCAACCUGCUCGGUCUGAUGAGUCCGGCUGUGGACGAAACAGC [GGCUGU]        1.68
19  GCUGUCACCGAGAAACUGUGAAGUAUAUCUUAAACCUGGGCACUUAAAAGAUAUAUGGAGUUAGUAGUGCAACCUGCUCGGUCUGAUGAGUCCUGCCAAGGACGAAACAGC [UGCCAA]        1.69
20  GCUGUCACCGAGAAACUGUGAAGUAUAUCUUAAACCUGGGCACUUAAAAGAUAUAUGGAGUUAGUAGUGCAACCUGCUCGGUCUGAUGAGUCCGGCAGGGGACGAAACAGC [GGCAGG]        1.82
21  GCUGUCACCGAGAAACUGUGAAGUAUAUCUUAAACCUGGGCACUUAAAAGAUAUAUGGAGUUAGUAGUGCAACCUGCUCGGUCUGAUGAGUCCUGCUGUGGACGAAACAGC [UGCUGU]        1.75
22  GCUGUCACCGAGAAACUGUGAAGUAUAUCUUAAACCUGGGCACUUAAAAGAUAUAUGGAGUUAGUAGUGCAACCUGCUCGGUCUGAUGAGUCCCUGCUGGGACGAAACAGC [CUGCUG]        1.63
23  GCUGUCACCGAGAAACUGUGAAGUAUAUCUUAAACCUGGGCACUUAAAAGAUAUAUGGAGUUAGUAGUGCAACCUGCUCGGUCUGAUGAGUCCACUCGUGGACGAAACAGC [ACUCGU]        1.76
24  GCUGUCACCGAGAAACUGUGAAGUAUAUCUUAAACCUGGGCACUUAAAAGAUAUAUGGAGUUAGUAGUGCAACCUGCUCGGUCUGAUGAGUCCUUCUCAGGACGAAACAGC [UUCUCA]        1.78
25  GCUGUCACCGAGAAACUGUGAAGUAUAUCUUAAACCUGGGCACUUAAAAGAUAUAUGGAGUUAGUAGUGCAACCUGCUCGGUCUGAUGAGUCCGUGAAAGGACGAAACAGC [GUGAAA]        1.41
26  GCUGUCACCGAGAAACUGUGAAGUAUAUCUUAAACCUGGGCACUUAAAAGAUAUAUGGAGUUAGUAGUGCAACCUGCUCGGUCUGAUGAGUCCGUCCUGGGACGAAACAGC [GUCCUG]        1.68
27  GCUGUCACCGAGAAACUGUGAAGUAUAUCUUAAACCUGGGCACUUAAAAGAUAUAUGGAGUUAGUAGUGCAACCUGCUCGGUCUGAUGAGUCCUUGGCCGGACGAAACAGC [UUGGCC]        1.81
28  GCUGUCACCGAGAAACUGUGAAGUAUAUCUUAAACCUGGGCACUUAAAAGAUAUAUGGAGUUAGUAGUGCAACCUGCUCGGUCUGAUGAGUCCACGCCGGGACGAAACAGC [ACGCCG]        1.74
29  GCUGUCACCGAGAAACUGUGAAGUAUAUCUUAAACCUGGGCACUUAAAAGAUAUAUGGAGUUAGUAGUGCAACCUGCUCGGUCUGAUGAGUCCUCUGUCGGACGAAACAGC [UCUGUC]        1.75
30  GCUGUCACCGAGAAACUGUGAAGUAUAUCUUAAACCUGGGCACUUAAAAGAUAUAUGGAGUUAGUAGUGCAACCUGCUCGGUCUGAUGAGUCCCACACAGGACGAAACAGC [CACACA]        1.45
31  GCUGUCACCGAGAAACUGUGAAGUAUAUCUUAAACCUGGGCACUUAAAAGAUAUAUGGAGUUAGUAGUGCAACCUGCUCGGUCUGAUGAGUCCACCUGAGGACGAAACAGC [ACCUGA]        1.52
32  GCUGUCACCGAGAAACUGUGAAGUAUAUCUUAAACCUGGGCACUUAAAAGAUAUAUGGAGUUAGUAGUGCAACCUGCUCGGUCUGAUGAGUCCCAUUCUGGACGAAACAGC [CAUUCU]        1.55
33  GCUGUCACCGAGAAACUGUGAAGUAUAUCUUAAACCUGGGCACUUAAAAGAUAUAUGGAGUUAGUAGUGCAACCUGCUCGGUCUGAUGAGUCCAACGCAGGACGAAACAGC [AACGCA]        1.67
34  GCUGUCACCGAGAAACUGUGAAGUAUAUCUUAAACCUGGGCACUUAAAAGAUAUAUGGAGUUAGUAGUGCAACCUGCUCGGUCUGAUGAGUCCGCAUACGGACGAAACAGC [GCAUAC]        1.42
35  GCUGUCACCGAGAAACUGUGAAGUAUAUCUUAAACCUGGGCACUUAAAAGAUAUAUGGAGUUAGUAGUGCAACCUGCUCGGUCUGAUGAGUCCACGUAAGGACGAAACAGC [ACGUAA]        1.43
36  GCUGUCACCGAGAAACUGUGAAGUAUAUCUUAAACCUGGGCACUUAAAAGAUAUAUGGAGUUAGUAGUGCAACCUGCUCGGUCUGAUGAGUCCAACCCGGGACGAAACAGC [AACCCG]        1.67
37  GCUGUCACCGAGAAACUGUGAAGUAUAUCUUAAACCUGGGCACUUAAAAGAUAUAUGGAGUUAGUAGUGCAACCUGCUCGGUCUGAUGAGUCCGCAGUCGGACGAAACAGC [GCAGUC]        1.31
38  GCUGUCACCGAGAAACUGUGAAGUAUAUCUUAAACCUGGGCACUUAAAAGAUAUAUGGAGUUAGUAGUGCAACCUGCUCGGUCUGAUGAGUCCCAAAUAGGACGAAACAGC [CAAAUA]        1.28
39  GCUGUCACCGAGAAACUGUGAAGUAUAUCUUAAACCUGGGCACUUAAAAGAUAUAUGGAGUUAGUAGUGCAACCUGCUCGGUCUGAUGAGUCCUACCCCGGACGAAACAGC [UACCCC]        1.79
40  GCUGUCACCGAGAAACUGUGAAGUAUAUCUUAAACCUGGGCACUUAAAAGAUAUAUGGAGUUAGUAGUGCAACCUGCUCGGUCUGAUGAGUCCUGCGUUGGACGAAACAGC [UGCGUU]        1.69
41  GCUGUCACCGAGAAACUGUGAAGUAUAUCUUAAACCUGGGCACUUAAAAGAUAUAUGGAGUUAGUAGUGCAACCUGCUCGGUCUGAUGAGUCCAUUGAAGGACGAAACAGC [AUUGAA]        1.48
42  GCUGUCACCGAGAAACUGUGAAGUAUAUCUUAAACCUGGGCACUUAAAAGAUAUAUGGAGUUAGUAGUGCAACCUGCUCGGUCUGAUGAGUCCCUGAAAGGACGAAACAGC [CUGAAA]        1.28
43  GCUGUCACCGAGAAACUGUGAAGUAUAUCUUAAACCUGGGCACUUAAAAGAUAUAUGGAGUUAGUAGUGCAACCUGCUCGGUCUGAUGAGUCCUGUAUAGGACGAAACAGC [UGUAUA]        1.73
44  GCUGUCACCGAGAAACUGUGAAGUAUAUCUUAAACCUGGGCACUUAAAAGAUAUAUGGAGUUAGUAGUGCAACCUGCUCGGUCUGAUGAGUCCUUCACCGGACGAAACAGC [UUCACC]        1.78
45  GCUGUCACCGAGAAACUGUGAAGUAUAUCUUAAACCUGGGCACUUAAAAGAUAUAUGGAGUUAGUAGUGCAACCUGCUCGGUCUGAUGAGUCCCGACUCGGACGAAACAGC [CGACUC]        1.72
